Taken from patent US20260001847A1.

Tested on: Amaranthus retoflexus (AMARE)
Assay: Post-emergence Test
Assay type: in vivo
Settings: 1000 g/ha, evaluated after 13 days
VALUE_KIND: percentage damage caused to the plant, AMARE

{"SMILES_DATA": "CCn1c(-c2ccc(Cl)c(Cl)c2)c(C(=O)O)c(=O)c2cc(SC)ccc21", "OBSERVED": "2 (2=21-40%)"}
{"SMILES_DATA": "CCn1c(-c2ccc(Cl)c(Cl)c2)c(C(=O)O)c(=O)c2cc(C(N)=O)ccc21", "OBSERVED": "2 (2=21-40%)"}
{"SMILES_DATA": "CCn1c(-c2ccc(Cl)c(Cl)c2)c(C(=O)O)c(=O)c2cc(Cl)ccc21", "OBSERVED": "1 (1=0-20%)"}
{"SMILES_DATA": "CCn1c(-c2ccc(Cl)c(Cl)c2)c(C(=O)O)c(=O)c2cc(Br)ccc21", "OBSERVED": 0}
{"SMILES_DATA": "CCn1c(-c2ccc(Cl)c(Cl)c2)c(C(=O)O)c(=O)c2cc(OC)ccc21", "OBSERVED": "2 (2=21-40%)"}
{"SMILES_DATA": "CCn1c(-c2ccc(Cl)c(Cl)c2)c(C(=O)O)c(=O)c2cc(C#N)ccc21", "OBSERVED": "3 (3=41-60%)"}

---

Test system: Echinochloa crus-galli (ECHCG)
Experiment: Post-emergence Test
Assay type: in vivo
Conditions: 1000 g/ha, evaluated after 13 days
percentage damage caused to the plant, ECHCG values, listed per item
VALUE_KIND: percentage damage caused to the plant, ECHCG

{"SMILES_DATA": "CCn1c(-c2ccc(Cl)c(Cl)c2)c(C(=O)O)c(=O)c2c(C(F)(F)F)cccc21", "OBSERVED": "5 (5=81-100%)"}
{"SMILES_DATA": "CCn1c(-c2ccc(Cl)c(Cl)c2)c(C(=O)O)c(=O)c2ccc(C(F)(F)F)cc21", "OBSERVED": "2 (2=21-40%)"}
{"SMILES_DATA": "CCn1c(-c2ccc(Cl)c(Cl)c2)c(C(=O)O)c(=O)c2ccccc21", "OBSERVED": "3 (3=41-60%)"}
{"SMILES_DATA": "CCn1c(-c2ccc(Cl)c(Cl)c2)c(C(=O)O)c(=O)c2cc(F)ccc21", "OBSERVED": "4 (4=61-80%)"}
{"SMILES_DATA": "CCn1c(-c2ccc(Cl)c(Cl)c2)c(C(=O)O)c(=O)c2cc(SC)ccc21", "OBSERVED": "4 (4=61-80%)"}
{"SMILES_DATA": "CCn1c(-c2ccc(Cl)c(Cl)c2)c(C(=O)O)c(=O)c2cc(-c3ccc(F)cc3)ccc21", "OBSERVED": 0}
{"SMILES_DATA": "CCn1c(-c2ccc(Cl)c(Cl)c2)c(C(=O)O)c(=O)c2cc(OC)ccc21", "OBSERVED": "3 (3=41-60%)"}
{"SMILES_DATA": "CCn1c(-c2ccc(Cl)c(Cl)c2)c(C(=O)O)c(=O)c2cc(C)ccc21", "OBSERVED": "3 (3=41-60%)"}
{"SMILES_DATA": "CCn1c(-c2ccc(Cl)c(Cl)c2)c(C(=O)O)c(=O)c2cc(Br)ccc21", "OBSERVED": "4 (4=61-80%)"}
{"SMILES_DATA": "CCn1c(-c2ccc(Cl)c(Cl)c2)c(C(=O)O)c(=O)c2cc(C(F)(F)F)ccc21", "OBSERVED": "4 (4=61-80%)"}
{"SMILES_DATA": "CCn1c(-c2ccc(Cl)c(Cl)c2)c(C(=O)O)c(=O)c2cc(S(C)(=O)=O)ccc21", "OBSERVED": "4 (4=61-80%)"}

---

Tested on: Ipomoea hederacea (IPOHE)
Experiment: Post-emergence Test
Format: in vivo
Settings: 1000 g/ha, evaluated after 13 days
VALUE_KIND: percentage damage caused to the plant, IPOHE

{"SMILES_DATA": "CCn1c(-c2ccc(Cl)c(Cl)c2)c(C(=O)O)c(=O)c2cc(C(N)=O)ccc21", "OBSERVED": "1 (1=0-20%)"}
{"SMILES_DATA": "CC(=O)c1cccc2c1c(=O)c(C(=O)O)cn2-c1ccc(OC(F)(F)F)cc1", "OBSERVED": "1 (1=0-20%)"}
{"SMILES_DATA": "CCn1c(-c2ccc(F)cc2)c(C(=O)O)c(=O)c2ccccc21", "OBSERVED": 0}
{"SMILES_DATA": "CCn1c(-c2ccc(Cl)c(Cl)c2)c(C(=O)O)c(=O)c2c(C(F)(F)F)cccc21", "OBSERVED": "3 (3=41-60%)"}
{"SMILES_DATA": "CCn1c(-c2ccc(Cl)c(Cl)c2)c(C(=O)O)c(=O)c2cc(Cl)ccc21", "OBSERVED": "1 (1=0-20%)"}
{"SMILES_DATA": "CCn1c(-c2ccc(Cl)c(Cl)c2)c(C(=O)O)c(=O)c2ccc(OC)cc21", "OBSERVED": "3 (3=41-60%)"}
{"SMILES_DATA": "CCn1c(-c2ccc(Cl)c(Cl)c2)c(C(=O)O)c(=O)c2cc(S(C)(=O)=O)ccc21", "OBSERVED": "2 (2=21-40%)"}
{"SMILES_DATA": "CCn1c(-c2ccc(Cl)c(Cl)c2)c(C(=O)O)c(=O)c2cc(OC)ccc21", "OBSERVED": "2 (2=21-40%)"}
{"SMILES_DATA": "CCn1c(-c2ccc(Cl)c(Cl)c2)c(C(=O)O)c(=O)c2cc(SC)ccc21", "OBSERVED": "1 (1=0-20%)"}
{"SMILES_DATA": "CCn1c(-c2ccc(Cl)c(Cl)c2)c(C(=O)O)c(=O)c2ccccc21", "OBSERVED": "4 (4=61-80%)"}
{"SMILES_DATA": "CCn1c(-c2ccc(Cl)c(Cl)c2)c(C(=O)O)c(=O)c2cc(Br)ccc21", "OBSERVED": "4 (4=61-80%)"}
{"SMILES_DATA": "CCn1c(-c2ccc(Cl)c(Cl)c2)c(C(=O)O)c(=O)c2c(Br)cccc21", "OBSERVED": "1 (1=0-20%)"}
{"SMILES_DATA": "CCn1c(-c2ccc(Cl)c(Cl)c2)c(C(=O)O)c(=O)c2cc(F)ccc21", "OBSERVED": "3 (3=41-60%)"}
{"SMILES_DATA": "CCn1c(-c2ccc(Cl)c(Cl)c2)c(C(=O)O)c(=O)c2cc(C)ccc21", "OBSERVED": "3 (3=41-60%)"}
{"SMILES_DATA": "CCn1c(-c2ccc(Cl)c(Cl)c2)c(C(=O)O)c(=O)c2cc(-c3ccc(F)cc3)ccc21", "OBSERVED": "2 (2=21-40%)"}
{"SMILES_DATA": "CCn1c(-c2ccc(Cl)c(Cl)c2)c(C(=O)O)c(=O)c2cc(C(F)(F)F)ccc21", "OBSERVED": "2 (2=21-40%)"}
{"SMILES_DATA": "CCn1c(-c2ccc(Cl)c(Cl)c2)c(C(=O)O)c(=O)c2cc(C#N)ccc21", "OBSERVED": "2 (2=21-40%)"}
{"SMILES_DATA": "CCn1c(-c2ccc(Cl)c(Cl)c2)c(C(=O)O)c(=O)c2ccc(C(F)(F)F)cc21", "OBSERVED": 0}

---

Tested on: Amaranthus retoflexus (AMARE)
Experiment: Post-emergence Test
Format: in vivo
Conditions: 1000 g/ha, evaluated after 13 days
VALUE_KIND: percentage damage caused to the plant, AMARE

{"MOLECULE": "CCn1c(-c2ccc(Cl)c(Cl)c2)c(C(=O)O)c(=O)c2cc(-c3ccc(F)cc3)ccc21 [Compound 9]", "OBSERVED": "2 (2=21-40%)"}
{"MOLECULE": "CCn1c(-c2ccc(Cl)c(Cl)c2)c(C(=O)O)c(=O)c2cc(C)ccc21 [Compound 14]", "OBSERVED": "5 (5=81-100%)"}
{"MOLECULE": "CCn1c(-c2ccc(F)cc2)c(C(=O)O)c(=O)c2ccccc21 [Compound 18]", "OBSERVED": "1 (1=0-20%)"}
{"MOLECULE": "CC(=O)c1cccc2c1c(=O)c(C(=O)O)cn2-c1ccc(OC(F)(F)F)cc1 [Compound 19]", "OBSERVED": 0}
{"MOLECULE": "CCn1c(-c2ccc(Cl)c(Cl)c2)c(C(=O)O)c(=O)c2c(C(F)(F)F)cccc21 [Compound 2]", "OBSERVED": "2 (2=21-40%)"}
{"MOLECULE": "CCn1c(-c2ccc(Cl)c(Cl)c2)c(C(=O)O)c(=O)c2cc(S(C)(=O)=O)ccc21 [Compound 12]", "OBSERVED": "3 (3=41-60%)"}
{"MOLECULE": "CCn1c(-c2ccc(Cl)c(Cl)c2)c(C(=O)O)c(=O)c2ccc(C(F)(F)F)cc21 [Compound 13]", "OBSERVED": "2 (2=21-40%)"}
{"MOLECULE": "CCn1c(-c2ccc(Cl)c(Cl)c2)c(C(=O)O)c(=O)c2cc(F)ccc21 [Compound 6]", "OBSERVED": "1 (1=0-20%)"}
